Reported Residual Activity (%) 1 mM values are given for each entry in this list.
Target Or Test System: chemically synthesized HIV protease (Human immunodeficiency virus type 1 group M subtype B, UniProt P12497, C555A/C583A)
Construct: The HIV protease was chemically synthesized; made in house; host or cells: chemical peptide synthesis, no expression host
Format: biochemical
Stated Conditions: inhibitor 1 mM

- Compound: "NC(=O)C[C@H](NC(=O)[C@@H](N)Cc1ccccc1)C(=O)N[C@@H](Cc1ccccc1)[C@H](O)C(=O)NCC1CCCCC1 [Example 11, H-Phe-Asn-(2S,3S)-AHPBA-NH--CH2 --C6 H11]"
  Residual Activity (%) 1 mM: "16.4%"
- Compound: "N[C@@H](CO)C(=O)N[C@@H](Cc1ccccc1)[C@@H](O)C(=O)NCC1CCCCC1 [Example 12, H-Ser-(2R,3S)-AHPBA-NH--CH2 --C6 H11]"
  Residual Activity (%) 1 mM: "89.7%"
- Compound: "CC(C)(C)OC(=O)N[C@@H](CO)C(=O)N[C@@H](Cc1ccccc1)[C@@H](O)C(=O)NCC1CCCCC1 [Example 5, Boc-Ser-(2R,3S)-AHPBA-NH--CH2 --C6 H11]"
  Residual Activity (%) 1 mM: "82.9%"

Data origin, for the record: patent US6329502A
